quantity_name: melting point

Example results:
compound	melting point
CCC(=CC(CNC(=O)c1ccc(N)nc1)=NO)C(C)[N+](=O)[O-] (stereo not drawn)	157 to 161 °C
COc1ccc2c3c(n(C)c2c1)SCCC3=O	204 to 206 °C
CC1(C)CCC(C)(C)c2cc(C(=O)COc3ccc(C=O)c(O)c3)ccc21	111 to 112 °C
CCCc1nccn1-c1ncnc2nc[nH]c12	242 to 244 °C
CCOC(=O)CC(=O)COCC1=C(C(=O)OCC)C(c2cccc(Cl)c2Cl)C(C(=O)OC)=C(C)N1 (stereo not drawn)	99 to 102 °C

Batch request: melting point per item, same order as input.
1. CS(=O)(=O)NC1CCC(NC(=O)Nc2ccc(C(F)(F)F)cc2)CC1 (stereo not drawn)
2. COc1cc(CO)cc(OC)c1Br
3. CC(=O)N1CC2CC2(c2ccccc2)C1 (stereo not drawn)
4. C=CCN1C(=O)CN(c2ccc(OCc3ccccc3)cc2)C1=S
5. CN1CCN(c2ccc(Cl)c(C3(C)C(=O)Nc4ccc(Cl)cc43)c2)CC1 (stereo not drawn)
6. CCOC(=O)Cc1c(C(=O)CC)sc2[nH]c(C(=O)CC)cc12
7. COc1ccc2c(c1)C(c1ccc(N)cc1)=Nn1c(nc(C)c1C)C2
8. N#Cc1cnc(Nc2ccc(CCO)cc2)nc1-c1ccccc1

1. 237 to 239 °C
2. 100 to 102 °C
3. 63 to 65 °C
4. 130 °C
5. 155 °C
6. 147 to 148 °C
7. 280 °C
8. 142 to 143 °C

Batch request: melting point per item, same order as input.
1. Cn1nc(N)nc1NCCSCc1cccc(CN2CCCCC2)c1
2. CC(=O)NCc1ccc(Oc2ccccc2C(=O)CN2CCN(c3ccncc3)CC2)cc1
3. C=CCc1cc(C=C2SCNC2=O)cc(CC=C)c1O
4. CCCCc1nc2ccc(C(=O)OC)cc2n1Cc1ccc(-c2ccccc2-c2nnn[nH]2)cc1
5. Nc1ccccc1Sc1ccccc1-c1nnn[nH]1

1. 92 to 93 °C
2. 150 to 151 °C
3. 184 to 188 °C
4. 224 to 225 °C
5. 153 to 156 °C

Batch request: melting point per item, same order as input.
1. COC1=C(C)C(=O)OC1O (stereo not drawn)
2. COc1ccc(S(=O)(=O)N2C(=O)C(=O)c3cc(Cl)ccc32)c(OC)c1
3. CCCOc1cc(CCCC2OC(=O)NC2=O)ccc1OCc1nc(-c2ccccc2)oc1C (stereo not drawn)
4. Cc1cc(F)ccc1-c1nc(NC(C)(C)CO)nc2c1ccc(=O)n2-c1ccccc1F
5. Cc1cccc(C=Cc2c(C(C)C)nc(C(C)C)c(CO)c2-c2ccc(F)cc2)c1
6. CC(Nc1nc(-c2ccc([N+](=O)[O-])cc2)nc2[nH]ccc12)c1ccccc1 (stereo not drawn)

1. 79 °C
2. 194 °C
3. 119 to 120 °C
4. 106 to 112 °C
5. 97 to 99 °C
6. > 250 °C

Batch request: melting point per item, same order as input.
1. COc1cc(C(=O)c2c[nH]c(-c3c[nH]c4ccccc34)n2)cc(OC)c1OC
2. CCCc1nnc(-c2ccc([N+](=O)[O-])cc2)n1-c1ccc(OC)cc1
3. CCOC(=O)c1cn(CCCl)c2cc(-n3cccc3)c(F)cc2c1=O

1: 208 to 210 °C; 2: 140 °C; 3: 254 to 256 °C
